Data credit: a melting point compilation (Tetko et al.; mined from patent text by program, amines drawn as free bases though some values may be those of a salt)

measure.name: melting point

Below, each entry is followed by its recorded melting point result.
FC(F)(Cc1c[nH]c2ccc(-n3cnnc3)cc12)CN1CCC(OCc2ccccc2)CC1
170 °C
CC(C)(C)c1cc(CCc2n[nH]c(=O)o2)cc(C(C)(C)C)c1O
120 to 123 °C
CCCn1cc(Cc2ccc(C(=O)NS(=O)(=O)c3ccccc3C)cc2OC)c2cc(CC3CCN(CC)C3=O)ccc21 (stereo not given)
107 to 115 °C
CCCCn1c(=O)c2cc(C(=O)O)cn2c2cc(Cl)ccc21
275 to 276 °C
Cc1c(SCCN2CCOCC2)ccnc1CSc1nc2ccccc2[nH]1
201 to 203 °C

What measured melting point goes with `COc1cc2c3ccc(OC)c(OC)c3n(C(=O)c3ccc4ccccc4c3)c2cc1OC` ?
137 to 141 °C

One more compound: `Cc1ccc(S(=O)(=O)NCCCCOc2ccc(N)cc2)cc1`
176 to 178 °C

Now try CCCCCCCCCCCCCCCCCCN(C)P1OCC2(CO1)COP(N(C)CCCCCCCCCCCCCCCCCC)OC2 (stereo not given) .
70 to 72 °C

====

Quick reference for melting point among some compounds

CC(=O)CN1C(=O)c2ccccc2C1=O
92 to 94 °C
O=C1CCCN1CC1CCN(c2nc(C(F)(F)F)ncc2O)CC1
213 to 215 °C
Cn1c(-c2ccc(OCC(=O)O)cc2)nc2c3ccccc3ccc21
227 °C
CCOC1CC2(C)C(CCC3C4CCC(=O)C4(C)CC(N)C32)CC1O (stereo not given)
144 to 148 °C
O=C(CC(Cc1cccc2ccccc12)C(=O)N[C@@H](Cc1c[nH]cn1)C(=O)N[C@H](CO)Cc1ccccc1)NCCc1ccccc1 (stereo not given in full)
106 to 109 °C

Please turn your attention to the following entry.
Consider the compound shown here: `C[Si](C)(C)c1cn(Cc2ccc(C#N)cc2)nn1` What is its recorded melting point?
83 °C

====

Item-by-item account of melting point

Dear colleague, I am looking for the recorded melting point of the following compound: CC(NC(=S)NCC(COC(=O)C(C)(C)C)Cc1ccccc1)c1ccc(NS(C)(=O)=O)cc1 (stereo not drawn)
58 to 62 °C

Next up: `COc1c(OCC(F)(F)C(F)(F)F)ccnc1CSc1nc2ccccc2[nH]1`
116 to 117 °C

Ok, now `CSc1c(CC(=O)O)cc(C)c2c3ccccc3n(Cc3ccccc3)c12`
219 to 220 °C

Now try `CCCCCCCCCCCCCCCCOc1cc(O)c(NC(C)=O)cc1C12CC3CC(CC(C3)C1)C2` .
146 to 148 °C

Same read-out for `CCCc1nn(C)c2c(-c3ccc(SC)cc3)nc(-c3ccc(F)cc3)nc12` ?
114 to 116 °C

Check `Cn1ccnc1-c1ccccc1N` too.
152 to 153 °C

Now consider O=CC1CCSc2[nH]c3ccccc3c21 (stereo not drawn) .
60 to 65 °C

Ok, now `Cc1ccccc1NC(=O)Nc1ccc(-c2c(Cc3ccccc3)sc3ncnc(N)c23)cc1`
245 to 248 °C

Thanks! And `Clc1cccc(Cl)c1-c1nsnc1OCCBr` ?
60 to 61 °C

Same thing, different compound: `CCN(c1nc(C)cc(C(=O)N2CCOCC2)n1)c1ccc(C(C)C)cc1Br`
145 °C

Same question, COC(=O)CCC(Oc1cccc2c1cc(C)n2Cc1ccccc1)C(=O)OC (stereo not drawn) this time
139 to 141 °C

Please answer likewise for `CCCc1ccc(C(=O)O)c(F)c1F`
69 °C

Now give it for `c1ccc(Sc2ccc(Sc3ccccc3)s2)cc1` too.
47 to 48 °C

Quick one: `CC1(C)OC(=O)C(=C(Nc2ccccc2Br)N2CCOCC2)C(=O)O1`
212 to 213 °C

Repeat with Cc1cc(SC2=C(O)CC(CCc3ccc(O)cc3)(C3CCCC3)OC2=O)c(C(C)(C)C)cc1OCCO (stereo not drawn)
113 to 115 °C

Please answer likewise for CC(C)NC(=O)C1(C(C)C)CCCC1C (stereo not drawn)
90.5 to 91.5 °C

Also need `Cc1cccc(OCCOS(N)(=O)=O)c1` , thanks.
76 to 78 °C

Now try O=C(O)CC[C@H]1O[C@@H](c2ccccc2)c2ccccc2N(Cc2ccccc2)C1=O (relative stereo) .
112 to 114 °C

Quick one: CC(O)Cn1nc2c3c(cc(O)cc31)CCC2 (stereo not drawn)
153 to 155 °C

// query: `OCCn1ccc(NC(=S)NCC(F)(F)F)n1`
145 to 146 °C

Queued: `CC(=O)c1ccc2c(c1)C(=O)C1(CC1)S2`
128 to 129 °C

Then CCCc1ccc2c(c1)C(=O)N(c1ccc(C(C)C(=O)O)cc1)C2 (stereo not drawn) ?
175 to 177 °C

Then what about the compound `COC(=O)c1cc2cc(S(N)(=O)=O)sc2s1` ?
219 to 220 °C

Then `CS(=O)(=O)c1ccc2cc[nH]c2c1` ?
149 to 152 °C

Now give it for `CNC(=C[N+](=O)[O-])NCCSCc1nc(CN(C)C)sc1C` too.
104 to 106 °C

====

Reported melting point values for the following compounds.

Would you please look over these solved cases?
Cc1cc2oc(=O)c3c(c2cc1Cl)CC(N1CC2CCCC(C2)C1)NC3 (configuration not stated)
147 to 149 °C
O=C(NCCc1ccc(I)cc1)C(F)(F)F
136 to 138 °C
Cc1cc(-n2cnnc2)cc2ccc(=O)[nH]c12
369 to 371 °C

Given the entry COc1ccc(CN(C(=O)C2CCCc3c(O)cccc32)c2ccc(C(C)C)cc2)cn1 (configuration not stated) , report its measured melting point.
158 °C

====

melting point values for the compounds below.

Consider the following illustrative entries.
O=C(N[C@H](Cc1ccc(C(F)(F)F)cc1)[C@@H](O)c1cccc(F)c1)c1ccc(F)c2ccccc12 (racemic)
200 to 201 °C
CCCc1c(OCCCOc2ccc(Cl)c3ccccc23)ccc2c1OC(CCC(=O)O)(CCC(=O)O)CC2=O
170 to 171 °C

Any idea what its melting point is? The compound is `CCCc1nc2c(N)nc3cc(OCCOCCOc4ccc5c(c4)nc(N)c4nc(CCC)sc45)ccc3c2s1`
186 to 189 °C

Also check O=C(CCCCC1(c2ccccc2)CC(O)=C(SCCc2ccccc2)C(=O)O1)NCc1ccccc1 (centres undefined)
47 to 49 °C

====

measure.name: melting point

Cc1cc(NC(=O)N2CCc3cc(N(C)C)ccc32)c2ccccc2n1
252 to 253 °C
CCOC(=O)C(C)(C)c1ccc(Br)c([N+](=O)[O-])c1
42 to 45 °C
O=C(Nc1ccccn1)C(=O)OC1CCCCC1
62 to 64 °C
Fc1ccc(-c2cc3c(cc2Br)OCO3)cc1
86 to 87.5 °C
CCCC(=O)C1=C(n2cccn2)CC(C2CCCSC2)CC1=O (stereo not given)
127 °C

// switching to the query compound
What value of melting point has been recorded for this entry: `O=Cc1ccc2c(c1)OC(c1ccccc1)(c1ccccc1)O2`
157 to 159 °C

====

melting point reference

Some entries whose results are on file:
CCOC(=O)/C=C/c1ccc(OCCOC)cc1Oc1ccc([N+](=O)[O-])cc1
61 to 64 °C
CCOC1CN(Cc2cc(OC)c(OC)c(OC)c2)Cc2cc(OC)c(OCc3ccccc3)cc21 (stereo not given)
132 to 133 °C
Cn1cc(-c2cccc(C(F)(F)F)c2)c(=O)c(-c2ccc(F)cc2Cl)c1
183 to 186 °C
C=CCNc1nc(NCC(C)(C)C)nc2ccc([N+](=O)[O-])cc12
167 to 168 °C

Returns the measured melting point for the input compound. Input: `CCn1ccnc1S(N)(=O)=O`
123 to 125 °C

====

measure.name: melting point

Some entries whose results are on file:
CCOc1ccc(NC(=O)C(C)(C)O)cc1
146 to 148 °C
CC(C)=C1NC(=O)c2ccccc2S1
187 to 188 °C
CN(C)c1ccc2nc(N)c(C#N)c(NCc3ccccc3)c2c1
265 °C
O=C(OCc1cc(F)nc(F)c1)c1ccccc1
83 to 84 °C
O=C1CCCC2=C1C(c1ccc(Br)s1)C1=C(CCS1)N2 (stereo unspecified)
> 250 °C

Entry COc1ccc(C2=NN(C3Cc4ccccc4C3)C(=O)[C@H]3CC=CC[C@@H]23)cc1OC (relative stereo) : reported melting point = ?
163 to 164 °C

Next molecule: `c1ccc(-c2cc3ccccc3o2)nc1`
86 to 87 °C

====

Measured melting point, listed per entry.

Previously resolved entries follow.
CC(C)Cc1n[nH]c2c1c(=O)n(-c1ccccc1)c1ncccc21
217 to 220 °C
CCc1ccc(Oc2cc3c(cc2Cl)C=C(C(=O)O)C(C(F)(F)F)O3)cc1 (centres undefined)
196 °C
CCCCCCCCCCCCCCCc1cc2cccc(C(=O)O)c2[nH]1
93 to 99 °C
N#Cc1ccc(/C=C/c2nc[nH]c2[N+](=O)[O-])cc1
> 300 °C
CS(=O)(=O)NC(c1ccc(Cl)c2nc3n(c12)CCCN3c1c(Cl)cc(Cl)cc1Cl)C(F)(F)F (centres undefined)
290 to 291 °C
CCOC(=O)c1nc2c(=O)[nH]c3cc(C(F)(F)F)ccc3n2c1CP(=O)(O)O
> 250 °C
O=C(Cc1cc(Cl)cc(Cl)c1)NC1N=C(C2CC2)c2ccccc2N(CC(F)(F)F)C1=O (single isomer, unassigned; (+))
152 to 153 °C
O=C(O)CC(CSc1nc2ccccc2s1)C(=O)O (centres undefined)
136 to 139 °C

// moving on: another record for melting point
Return reported melting point; argument: CN1CC=CC(c2cc3ccccc3o2)C1 (centres undefined)
63 °C
